tested on: P. aeruginosa PA14; assay: Growth inhibition assay in nutrient medium (OD600); type: cell-based, Pseudomonas aeruginosa; conditions: […] sweetener, 19 hours, 37° C.
MEASURED_QUANTITY: bacterial growth in the presence of sweetener

>  <COMPOUND>
OC[C@@H](O)[C@@H](O[C@H]1O[C@H](CO)[C@@H](O)[C@H](O)[C@H]1O)[C@H](O)[C@@H](O)CO [maltitol, Maltitol]

>  <OBSERVED_MEASUREMENT>
inhibit the growth

$$$$
>  <COMPOUND>
OC[C@@H](O)[C@H](O)[C@@H](O)CO [xylitol, Xylitol]

>  <OBSERVED_MEASUREMENT>
inhibit the growth

$$$$
>  <COMPOUND>
OC[C@H]1O[C@H](O[C@]2(CCl)O[C@H](CCl)[C@@H](O)[C@@H]2O)[C@H](O)[C@@H](O)[C@H]1Cl [sucralose, Sucralose]

>  <OBSERVED_MEASUREMENT>
inhibit the growth

$$$$
>  <COMPOUND>
OC[C@@H](O)[C@@H](O)[C@H](O)[C@@H](O)CO [sorbitol]

>  <OBSERVED_MEASUREMENT>
inhibit the growth

$$$$

q: Record request: bacterial growth in the presence of sweetener value, item CC1=CC(=O)[N-]S(=O)(=O)O1.[K+] [ace-K]
a: inhibit the growth
